B1: TPR t1 (parent)
chain: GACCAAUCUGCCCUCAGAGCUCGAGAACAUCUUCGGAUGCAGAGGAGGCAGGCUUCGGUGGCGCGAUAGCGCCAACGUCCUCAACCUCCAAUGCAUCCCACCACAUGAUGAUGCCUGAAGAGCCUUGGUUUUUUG

- Variants of: B1
- Method notes: polymerase ribozyme fitness, log enrichment relative to wild type (log ratio); higher = more active; in vitro selection for triplet polymerase activity
Collected polymerase ribozyme fitness (log ratio) values appear next to each entry.
Just the number.

Record excerpt, results attached:
1. GACCAAUCUGCCCUCAGAGCUCGAGAACAUCUUCGGAUGCAGAGGAGGCAGGCUUCGGUGGCGCGAUAGCGCCAACGUCCUCAACCUCCAAUGCGUCCCACCACAUGAUGAUGCCUGAAGAGGCUUGGUUUUUUG = 1.72
2. GACCAAUCUGCCCUCAGAGCUCGAGAACAUCUUCGGAUGCAGAGGAGGCAGGCUUCGGUGGCGCGAUAGCGCCAACGUCCUCAACCUCCAAUGCAUCCUACCACAUGAUGAUGCCUUAAGAGCCUUGGUUUUUUG = -3.93
3. GACCAAUCUGCCCUCAGAGCUCGAGAACAUCUUCGGAUGCAGAGGAGGCAGGCUUCGGUGGCGCGAUAGCGCCAACGUCCACAACCUCCAAUGCAUCCCACCACACGAUAAUCUCUGAGGAGCCUUGGUUUUUUG = -5.29
4. GACCAAUCUGCCCUCAAAGCUCGAGAACAUCUUCGGAUGCAGAGGAGGCAGGCUUCGGUGUCGCGAUAGCGCCAACGUCCUCAAACUCCAAUGCAUUCCACCACAUGAUGAUGCCUGAAGAGCCUUGGUUUUUUG = -4.18
5. GACCAAUCUGCCCUCAGAGCUCGAGAACAUCUUCGGAUGCAAAGGAGGCAGGCUUCGGUGGCGCGAUAGCGCCAACGUCCUCAACCUCCAAUGCAUCCCAUCACAUGAUGAUGCCUGAAGAGCCUUGGUUUUUUG = -1.9
6. GACCAAUCUGCCCUCAGAGCUCGAGAACAUCUUCGGAUGCAGAGGAGGCAGGCUUCGGUGGCGCGAUAGCGCCAACGUCCUCAACCUCCAAUGCAUCCCACCACAUGAUGAUGCCUUAAAAGCCUUGGUUUUUUG = -2.24

Now turn to the next variant.
Qu. Quick one: polymerase ribozyme fitness (log ratio) for GACCAAUCUGCCCUCAGAGCUCGAGAACAUCUUCGGAUGCAGAGGAGGCAGGCUUCUGUGGCGCGAUAGCGCCAACGUCCUCAACCUCCAAUGCAUCCCACCACAUGAUGAUGCCUGAAGAGCCUUGGUUUUUUG ?
Ans. -0.128
